Each recorded value in this set is attributed to patent US20200339690A1.

assay target: T1, human LILRA1 (human, UniProt O75019 17-489)
T1 construct: Over-expressed on CHO-s cells; also called hLILRA1
T1 sequence (O75019 17-489 limits assumed): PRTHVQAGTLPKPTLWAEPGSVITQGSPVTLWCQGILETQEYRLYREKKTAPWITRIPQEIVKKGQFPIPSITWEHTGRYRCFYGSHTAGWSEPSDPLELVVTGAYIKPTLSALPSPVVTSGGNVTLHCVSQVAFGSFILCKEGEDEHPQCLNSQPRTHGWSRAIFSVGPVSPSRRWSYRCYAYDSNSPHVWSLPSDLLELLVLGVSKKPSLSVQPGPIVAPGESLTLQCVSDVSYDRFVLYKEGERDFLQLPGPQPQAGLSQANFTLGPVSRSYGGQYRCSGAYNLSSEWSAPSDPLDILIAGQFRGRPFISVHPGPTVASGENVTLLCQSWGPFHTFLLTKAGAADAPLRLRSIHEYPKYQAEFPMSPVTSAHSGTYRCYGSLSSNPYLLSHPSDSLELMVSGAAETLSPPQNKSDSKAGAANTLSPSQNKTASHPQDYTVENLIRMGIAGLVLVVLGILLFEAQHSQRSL
assay notes: flow cytometry, LILRA1 CHOs
Method: To test for specificity to hLILRB2 and not towards any of the ten LILR family members, a multiplexed cell-based barcoding approach was used by staining cells with Far Red and/or Violet Cell Trace dyes (Thermo Scientific) according to manufacturer's protocol or left unstained. […] Samples were analyzed using the Celesta flow cytometer analyzer (BD Biosciences). Geometric mean fluorescence intensity (gMFI) of PE was determined for each antibody across each cell line. […]
measured parameter: binding (fold over iso)
Just the number in fold over iso, nothing appended.

Exercise: Record request: binding (fold over iso) value, item J-19.h2 (antibody, human IgG4 S228P, kappa, V domains shown, Humanized, human IgG4 backbone) VH: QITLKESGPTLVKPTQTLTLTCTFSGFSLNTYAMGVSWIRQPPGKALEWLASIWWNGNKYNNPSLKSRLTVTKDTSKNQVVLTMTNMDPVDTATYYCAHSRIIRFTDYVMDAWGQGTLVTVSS VL: DIVMTQSPSSLSASVGDTVTITCRASEDIYNDLAWYQQKPGKAPQLLLYNANSLHTGVPSRFSGSGSGTDYTLTISTLQPEDFATYYCQQYYDYPLTFGPGTKVHIKR
Solution: 0.89
